Data credit: PubChem BioAssay (NCI)

# Test system: UACC-257 melanoma
# PROTOCOL TEXT: NCI-60 one-dose screen, 48 h
# PROTOCOL CONDITIONS: 10 µM unless noted
The panel holds about 83,000 compounds, 20% with a hit somewhere; the sample as a whole holds those more often. Calls of active or inactive are those of the source. Rule for the calls: active = growth percent below 10; inactive = the rest.
Permitted responses: active, inactive

The examples below pair each entry with its known result.
{"COMPOUND": "O=C(O)C1(Cc2cccc(Nc3nccs3)n2)CCC(Oc2cccc(Cl)c2F)CC1 (stereo not given)", "GROUP": "inactive"}
{"COMPOUND": "O=C(O)c1ccc2c(c1)nc(Nc1cccc(Cl)c1)c1ccncc12", "GROUP": "active"}
{"COMPOUND": "O=C(CNc1nc2ccccc2s1)Nc1ccc(-c2nc3ccccc3s2)cc1", "GROUP": "inactive"}

Outcome logged for Clc1ccc(C(Cn2ccnc2)OCc2ccsc2Cl)c(Cl)c1 (stereo not given) in this assay:
inactive

Outcome logged for `Cc1csc(-c2nnc(Nc3ccc(Oc4ncccc4-c4ccnc(N)n4)cc3)c3ccccc23)c1` in this assay:
inactive

====

# Test system: NCI-H23 lung
# PROTOCOL TEXT: NCI-60 one-dose screen, 48 h (100 = growth as untreated, 0 = no growth, -100 = all killed)
# PROTOCOL CONDITIONS: 10 µM unless noted
About 83,000 compounds went through this panel and 20% of them were active in at least one assay; those are over-represented in the sample as a whole.
Please respond with reported growth for every item in the list.
Numbers only, in %.

// below: answered compounds
{"COMPOUND": "CN(c1ncccc1CNc1nc(Nc2ccc3c(c2)CC(=O)N3)ncc1C(F)(F)F)S(C)(=O)=O", "growth / %": -18.1}
{"COMPOUND": "O=C(Nc1ccc(-c2ccnc(Nc3ccc(N4CCOCC4)cc3)n2)cc1)[C@@H]1CCCN1", "growth / %": 65.6}
{"COMPOUND": "CNC(=O)c1ccc(Nc2ncc(C(F)(F)F)c(NCc3nccnc3N(C)S(C)(=O)=O)n2)cc1", "growth / %": -16.8}
{"COMPOUND": "COc1cc2ncnc(Nc3ccc(F)c(Cl)c3)c2cc1NC(=O)/C=C/CN1CCCCC1", "growth / %": -54.1}
{"COMPOUND": "CC(C)(C)c1nc(-c2cccc(NS(=O)(=O)c3c(F)cccc3F)c2F)c(-c2ccnc(N)n2)s1", "growth / %": 63.6}
{"COMPOUND": "CNS(=O)(=O)Nc1nccc(Cc2c(C)c3ccc(Oc4ncccn4)cc3oc2=O)c1F", "growth / %": 24.1}
{"COMPOUND": "CCOc1cc2ncc(C#N)c(Nc3ccc(OCc4ccccn4)c(Cl)c3)c2cc1NC(=O)/C=C/CN(C)C", "growth / %": 39.9}
{"COMPOUND": "C[C@H](NC(=O)c1c(N)nn2cccnc12)c1cc2cccc(C#Cc3cnn(C)c3)c2c(=O)n1-c1ccccc1", "growth / %": 40.9}
{"COMPOUND": "O=C(Nc1cccc([N+](=O)[O-])c1)c1ccc(Cl)c(Cl)c1", "growth / %": 59.3}
{"COMPOUND": "COc1ccc(COc2cc3oc(=O)c4cc(C(C)O)ccc4c3cc2OC)cc1 (centres undefined)", "growth / %": 70.8}

For every item in the list below, what is its measured growth?
1. CC1(C)NC(=O)c2[nH]c3c(Cl)c(Cl)ccc3c2C1C#N (centres undefined)
2. C=CC[n+]1c(/C=C2\Sc3ccccc3N2C)sc(-c2ccccc2)c1-c1ccccc1
3. CCN(CC)c1cc2oc3cc(N)cc(=N)c-3nc2cc1C

1: 75.8; 2: 0.426; 3: 13.9

For every item in the list below, what is its measured growth?
1. COc1ccc2c(c1OC)C(=O)O[C@@H]2[C@H]1c2c(c(C#CC#Cc3ccc(F)c(F)c3)c3c(c2OC)OCO3)CCN1C
2. Cc1cccc(NC(=O)[C@@H]2c3ccccc3C(=O)N(c3ccc(Cl)cc3)[C@H]2c2ccc(Cl)cc2)n1
3. CNC(=O)c1c(C)oc2cc(Oc3ncnc4cc(OC)c(OC)cc34)ccc12
4. COC[C@@H](C)n1c(C2CCOCC2)nc2c1C1C=C(OC)C(c3c(C)noc3C)=CC1N=C2 (some centres undefined)
5. CSC1=C(N)C(=O)c2[nH]cc(CO)c2C1=N

1. 90.3
2. 57.9
3. 93.8
4. 48.5
5. -29.3

// sample `Cc1ccc2oc(=O)cc(-c3cc(-c4cc5ccccc5oc4=O)nc(N)c3C#N)c2c1` , its growth was 62.7

====

# Tested on: LOX IMVI melanoma
# PROTOCOL TEXT: NCI-60 one-dose screen, 48 h (100 = growth as untreated, 0 = no growth, -100 = all killed)
# PROTOCOL CONDITIONS: 10 µM unless noted
This is part of a sample that, as a whole, favours compounds with a hit. Of some 83,000 tested, about 20% had one in any assay.
Class field: derived from growth; ranges lower bin = under -70%, middle bin = from -70% up to 40%, upper bin = 40% and over

{"COMPOUND": "CCN1CCN(Cc2ccc(-c3cc4c(N[C@H](C)c5ccccc5)ncnc4[nH]3)cc2)CC1", "TEST TARGET": "LOX IMVI melanoma", "GROUP": "middle bin"}
{"COMPOUND": "O=C(/C=C/c1ccc2c(c1)OCO2)c1c(O)c2ccccc2oc1=O", "TEST TARGET": "LOX IMVI melanoma", "GROUP": "upper bin"}
{"COMPOUND": "O=C(Cn1ccc2ccccc21)Nc1ccc(-c2nc3ccccc3s2)cc1", "TEST TARGET": "LOX IMVI melanoma", "GROUP": "upper bin"}
{"COMPOUND": "Cc1cc(N(CCNc2ccnc3cc(Cl)ccc23)Cc2ccc3c(c2)OCO3)nc(N2CCCC2)n1", "TEST TARGET": "LOX IMVI melanoma", "GROUP": "lower bin"}
{"COMPOUND": "COC(=O)c1ccc2c(C(=Nc3ccc(N(C)C(=O)CN4CCN(C)CC4)cc3)c3ccccc3)c(O)[nH]c2c1", "TEST TARGET": "LOX IMVI melanoma", "GROUP": "middle bin"}
{"COMPOUND": "CCN1CCN(c2cc(C)nc(N(CCCNc3ccnc4cc(Cl)ccc34)Cc3ccc4c(c3)OCO4)n2)CC1", "TEST TARGET": "LOX IMVI melanoma", "GROUP": "lower bin"}
{"COMPOUND": "C=CC(=O)Nc1cccc(Nc2nc(Nc3ccc(N4CCN(C(C)=O)CC4)cc3OC)ncc2C(F)(F)F)c1", "TEST TARGET": "LOX IMVI melanoma", "GROUP": "middle bin"}

Which of the defined bands does the recorded growth of COc1cc2c(c(OC)c1)C1c3ccccc3NC(=O)N1CC2 (centres undefined) sit within?
upper bin

====

# System: SK-MEL-2 melanoma
# PROTOCOL TEXT: NCI-60 one-dose screen, 48 h (100 = growth as untreated, 0 = no growth, -100 = all killed)
# PROTOCOL CONDITIONS: 10 µM
This is part of a sample that, as a whole, favours compounds with a hit. Of some 83,000 tested, about 20% had one in any assay. The source made the active and inactive calls. The calls were made as follows: active = growth percent below 10; inactive = the rest.
ENDPOINT LABEL: growth

// below: answered compounds
{"COMPOUND": "COC(=O)c1[nH]cnc1/N=N/N(C)CCO", "growth": "108% (inactive)"}
{"COMPOUND": "CC(=O)OC1Oc2ccccc2-c2oc(=O)c(-c3cc4ccc(N(C)C)cc4oc3=O)cc21 (stereo not given)", "growth": "46.7% (inactive)"}

For every item in the list below, what is its measured growth?
1. CC1CCC(n2cnc3c(Cl)ncnc32)O1 (stereo not given)
2. Oc1ccc(/C=N/Nc2nnc(N/N=C/c3ccc(O)cc3O)c3ccccc23)c(O)c1
3. COc1ccc(-n2c(=O)c3ccccc3n(Cc3ccc(C(=O)NO)cc3)c2=O)cc1
4. CN1CCN(Cc2ccc(NC(=O)c3[nH]ncc3Nc3ncnc4sc5c(c34)CCCC5)cc2)CC1
5. CCN(CCN(C)C)C(=O)CNCc1cc(C(N)=O)ccn1
6. CCc1ccc(C2=C(O)C(=O)C(c3ccc(CC)cc3)=C(O)C2=O)cc1
7. N#CC(C#N)=NO

["109% (inactive)", "-58% (active)", "14.2% (inactive)", "-53.7% (active)", "94.8% (inactive)", "-44.4% (active)", "100% (inactive)"]

For every item in the list below, what is its measured growth?
1. CC(CCCC(=O)O)c1ccoc1 (stereo not given)
2. Cc1cc2c(-c3nc4ccccn4c3Nc3cccc4ccccc34)c(O)c(O)cc2c(O)c1-c1c(C)cc2c(-c3nc4ccccn4c3Nc3cccc4ccccc34)c(O)c(O)cc2c1O

1: 105% (inactive); 2: 38.3% (inactive)

====

# Test system: TK-10 renal
# PROTOCOL TEXT: NCI-60 one-dose screen, 48 h (100 = growth as untreated, 0 = no growth, -100 = all killed)
# PROTOCOL CONDITIONS: 10 µM unless noted
About 83,000 compounds went through this panel and 20% of them were active in at least one assay; those are over-represented in the sample as a whole.
Binary label based on growth with cut-off 30%: below gives YES, not below gives NO.

The examples below pair each entry with its known result.
{"COMPOUND": "COC(=O)[C@@H](OC)[C@@H]1Cc2cc3cc(OC4CC(OC5CC(O)C(O)C(C)O5)C(O)C(C)O4)c(C)c(O)c3c(O)c2C(=O)[C@H]1OC1CC(OC2CC(OC3CC(C)(O)C(O)C(C)O3)C(O)C(C)O2)C(O)C(C)O1 (some centres undefined)", "TEST TARGET": "TK-10 renal", "GROUP": "YES"}
{"COMPOUND": "O=C(/C=C/c1ccc2c(c1)OCO2)c1c(O)c2ccccc2oc1=O", "TEST TARGET": "TK-10 renal", "GROUP": "NO"}
{"COMPOUND": "c1ccc2c(c1)CCN(NCCN1CCCC1)C2", "TEST TARGET": "TK-10 renal", "GROUP": "NO"}
{"COMPOUND": "CS(=O)(=O)CCNCc1ccc(-c2ccc3ncnc(Nc4ccc(OCc5cccc(F)c5)c(Cl)c4)c3c2)o1", "TEST TARGET": "TK-10 renal", "GROUP": "YES"}
{"COMPOUND": "CC(=O)c1c(C)c2cnc(Nc3ccc(N4CCNCC4)cn3)nc2n(C2CCCC2)c1=O", "TEST TARGET": "TK-10 renal", "GROUP": "NO"}

Bench note: check whether `NN1C(=O)CSC1=S` shows growth below 30%
NO

Bench note: check whether `C[C@@H](Oc1cc(-n2cnc3ccc(CN4CCN(C)CC4)cc32)sc1C(N)=O)c1ccccc1C(F)(F)F` shows growth below 30%
NO

Bench note: check whether `CCN(CCN(C)C)C(=O)CNCc1cc(C(N)=O)ccn1` shows growth below 30%
NO

Bench note: check whether `CCc1nc2cc(F)c(/C=C/C(=O)NO)cc2c(=O)n1CCc1ccccc1` shows growth below 30%
YES
